Hey, just so you know, these numbers are from PubChem BioAssay AID1578.

Experiment: NOD1 signaling inhibitors, primary screen, cell-based, luminescence, uHTS (AID 1578);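 also: HEK-293T reporter cells stimulated with the NOD1 agonist gamma-tri-DAP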
Conditions: NOD1-driven NF-kB luciferase reporter cells, at 4 µM
Hit rate of the full screen: of about 290,000 compounds, about 3,000 (1%) were called active. Rule as the data show it: active = inhibition mostly above about 36% (no sharp cut-off); inactive = mostly below about 34%. Shown is part of a subset that was picked to be rich in actives.
Pick one: class 1 for active, class 0 for inactive

Please state the recorded outcome for this compound: CC(C(=O)NCc1ccccc1)N1C(=O)C2CC=C(Cl)CC2C1=O (stereo not given)
class 0

Queued: C#CCOn1c(-n2nc(C)cc2C)nc2ccccc2c1=O
class 0

What do you have for COC(=O)N/N=C/c1cc(C)n(-c2ccc(F)cc2)c1C ?
class 0

Repeat with O=C1OCC/C1=C\c1ccc2c(c1)OCO2
class 0

Follow-up entry: CC(=O)c1sc(Nc2nc3ccc(F)cc3s2)nc1C
class 0

What would you report for O=C(Nc1ccccc1)C1=C[C@H](c2csc3ccccc23)C[C@H](OCc2ccc(CO)cc2)O1 ?
class 0

Repeat for the following compound: COc1ccccc1C(=O)CSc1n[nH]c(N)n1
class 1

# repeat for Cc1cc(CNC(=O)c2cccc([N+](=O)[O-])c2C)c2ccccc2n1
class 0

Repeat for the following compound: COc1cccc(N2CCN(C(C)C(=O)NC34CC5CC(CC(C5)C3)C4)CC2)c1 (stereo not given)
class 0

Next record, please: Cc1ccccc1OCc1nc2ccccc2c(=O)n1/N=C/c1cccc([N+](=O)[O-])c1
class 1

Moving on to the next compound: Cc1ccc(C(=O)c2ccc([N+](=O)[O-])cc2)c(C)c1
class 0

Same again, this time with Cc1ccc(Nc2nc(CSc3nnc(-c4cccnc4)n3-c3ccccc3F)cs2)cc1
class 0

Another compound: Cc1ccc(-c2nc(=S)c3c(n2CCN2CCOCC2)CC(C)(C)OC3)cc1
class 0

For CCOn1c(-n2nc(C)cc2C)nc2ccccc2c1=O then?
class 0

Ok, now COc1ccccc1CNC(=O)CSc1n[nH]c(N)n1
class 0
